B1: FOXJ1 (parent)
chain: SAIYKWITDNFCYFRHADPTWQNS

Variants of: B1
Test: protein stability index of a GFP-peptide fusion (GPS, HEK-293T) (PSI 1-6); higher = more stable;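 also: lentivirally expressed fusions sorted by FACS into six bins by GFP to DsRed ratio, PSI derived from sequencing read proportions per bin multiplied by bin number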
Settings: c terminus: a fixed tail appended
Decide by protein stability index: equal to or exceeding 3 means Fulfilled, less means Not fulfilled.

seq_text="SAIYKWITDNFCCFRHADPTWQNS [Y13C]" assigned_category="Not fulfilled"
seq_text="SAIYKWITDQFCYFRHADPTWQNS [N10Q]" assigned_category="Not fulfilled"
seq_text="SAIYKWIADNFCYFRHADPTWQNS [T8A]" assigned_category=Fulfilled
seq_text="SAIYKWITDNFCYFPHADPTWQNS [R15P]" assigned_category="Not fulfilled"
seq_text="SAIYKWITDNFCYFRHADPTWQES [N23E]" assigned_category=Fulfilled
seq_text="SAIYKWITDNFCYFRHADPRWQNS [T20R]" assigned_category=Fulfilled
seq_text="SAIYKWITDNFCYGRHADPTWQNS [F14G]" assigned_category="Not fulfilled"
seq_text="WAIYKWITDNFCYFRHADPTWQNS [S1W]" assigned_category=Fulfilled
seq_text="SAIYKWITDNGCYFRHADPTWQNS [F11G]" assigned_category="Not fulfilled"
seq_text="SAIYKWITDNFCYFRHADPTWQND [S24D]" assigned_category=Fulfilled
seq_text="YAIYKWITDNFCYFRHADPTWQNS [S1Y]" assigned_category="Not fulfilled"
seq_text="SAIYKWITDNFCYFRHADPTWQLS [N23L]" assigned_category="Not fulfilled"
seq_text="SAIYKWITDNFCYFRHADPTWQTS [N23T]" assigned_category=Fulfilled
seq_text="SAIYKPITDNFCYFRHADPTWQNS [W6P]" assigned_category="Not fulfilled"
seq_text="SASYKWITDNFCYFRHADPTWQNS [I3S]" assigned_category="Not fulfilled"
seq_text="SAIYKWETDNFCYFRHADPTWQNS [I7E]" assigned_category="Not fulfilled"
seq_text="SAIYKWITDFFCYFRHADPTWQNS [N10F]" assigned_category="Not fulfilled"
seq_text="SAIYKWITDNFCYFRHADPTWENS [Q22E]" assigned_category="Not fulfilled"
seq_text="SAIYKWITDNFCYFRHADFTWQNS [P19F]" assigned_category=Fulfilled
seq_text="SAIYKWITDNFCYFRHADPTWSNS [Q22S]" assigned_category=Fulfilled
seq_text="SAIHKWITDNFCYFRHADPTWQNS [Y4H]" assigned_category="Not fulfilled"
seq_text="SAIYKWITDNFSYFRHADPTWQNS [C12S]" assigned_category="Not fulfilled"
seq_text="SAIYKWITDNFCYFRYADPTWQNS [H16Y]" assigned_category="Not fulfilled"
seq_text="SAIYKWITDNFCYFRLADPTWQNS [H16L]" assigned_category=Fulfilled
seq_text="SAIYKWITENFCYFRHADPTWQNS [D9E]" assigned_category=Fulfilled
seq_text="SAIYKWITDNFCYFRHADPTWPNS [Q22P]" assigned_category=Fulfilled
seq_text="SAIYKWITDNFCYFHHADPTWQNS [R15H]" assigned_category=Fulfilled
seq_text="SAIYKTITDNFCYFRHADPTWQNS [W6T]" assigned_category="Not fulfilled"
seq_text="SAIYKWITDNFCYFRHAWPTWQNS [D18W]" assigned_category="Not fulfilled"
seq_text="SAIYKWITDNFCYFRHADPTWQYS [N23Y]" assigned_category=Fulfilled
seq_text="SAIYKWITDNFCYFRHADLTWQNS [P19L]" assigned_category="Not fulfilled"
seq_text="SAIYKWITDNFCYFRHADPTSQNS [W21S]" assigned_category="Not fulfilled"
